B1: glmS ribozyme (parent)
chain: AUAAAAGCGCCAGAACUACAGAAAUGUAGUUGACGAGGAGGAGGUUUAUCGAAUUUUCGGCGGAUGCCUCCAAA

- Variants of: B1
- PROCEDURE_DETAILS: self-cleavage kobs at 2500 uM GlcN6P; higher = faster cleavage; RNA array
- TEST_CONDITIONS: with glucosamine-6-phosphate
Fewer inactive variants are shown than the library holds.
Outcome label depends on self-cleavage kobs at 2500 uM GlcN6P relative to 0.0003 s⁻¹: at/above gives 1.0, below gives 0.0.

>  <MUTATION_LABEL>
C8G C58U C61U G63U C68U

>  <DISCRETE_LABEL>
0.0

$$$$
>  <MUTATION_LABEL>
G59A G63C

>  <DISCRETE_LABEL>
0.0

$$$$
>  <MUTATION_LABEL>
A12C U65A

>  <DISCRETE_LABEL>
1.0

$$$$
>  <MUTATION_LABEL>
U47A A52U

>  <DISCRETE_LABEL>
0.0

$$$$
>  <MUTATION_LABEL>
G13U G51C U57A C71A

>  <DISCRETE_LABEL>
0.0

$$$$
>  <MUTATION_LABEL>
A6U C16U

>  <DISCRETE_LABEL>
0.0

$$$$
>  <MUTATION_LABEL>
U54G G62C

>  <DISCRETE_LABEL>
0.0

$$$$
>  <MUTATION_LABEL>
A14U U46A

>  <DISCRETE_LABEL>
1.0

$$$$
>  <MUTATION_LABEL>
G7A G44A U46C A48U

>  <DISCRETE_LABEL>
0.0

$$$$
>  <MUTATION_LABEL>
G29A A36U

>  <DISCRETE_LABEL>
0.0

$$$$
>  <MUTATION_LABEL>
A39U U56A

>  <DISCRETE_LABEL>
1.0

$$$$
>  <MUTATION_LABEL>
G13A A52G

>  <DISCRETE_LABEL>
0.0

$$$$
>  <MUTATION_LABEL>
U47A U65C

>  <DISCRETE_LABEL>
1.0

$$$$
>  <MUTATION_LABEL>
G7C C50U A64C C68A

>  <DISCRETE_LABEL>
0.0

$$$$
>  <MUTATION_LABEL>
G29A G63C C70G

>  <DISCRETE_LABEL>
0.0

$$$$
>  <MUTATION_LABEL>
A12C C16U A36C

>  <DISCRETE_LABEL>
0.0

$$$$
>  <MUTATION_LABEL>
A15G A64C G66A

>  <DISCRETE_LABEL>
0.0

$$$$
>  <MUTATION_LABEL>
U31G U56A

>  <DISCRETE_LABEL>
1.0

$$$$
>  <MUTATION_LABEL>
A20C A48G

>  <DISCRETE_LABEL>
0.0

$$$$
>  <MUTATION_LABEL>
G66A C70A

>  <DISCRETE_LABEL>
1.0

$$$$
>  <MUTATION_LABEL>
U31C G38U G66U

>  <DISCRETE_LABEL>
0.0

$$$$
>  <MUTATION_LABEL>
A12U C68G

>  <DISCRETE_LABEL>
0.0

$$$$
>  <MUTATION_LABEL>
A12U G37A

>  <DISCRETE_LABEL>
1.0

$$$$
>  <MUTATION_LABEL>
G7U G40U

>  <DISCRETE_LABEL>
0.0

$$$$
>  <MUTATION_LABEL>
U30G U46C C68U

>  <DISCRETE_LABEL>
0.0

$$$$
>  <MUTATION_LABEL>
C8A C58U

>  <DISCRETE_LABEL>
0.0

$$$$
>  <MUTATION_LABEL>
A33G U56G G59C

>  <DISCRETE_LABEL>
0.0

$$$$
>  <MUTATION_LABEL>
A39U A53C C71A

>  <DISCRETE_LABEL>
0.0

$$$$
>  <MUTATION_LABEL>
A6G A14C C16G G40C

>  <DISCRETE_LABEL>
0.0

$$$$
>  <MUTATION_LABEL>
G7U G43U C68U

>  <DISCRETE_LABEL>
0.0

$$$$
>  <MUTATION_LABEL>
C10A A14C A64U

>  <DISCRETE_LABEL>
0.0

$$$$
>  <MUTATION_LABEL>
C10U G51C C58G

>  <DISCRETE_LABEL>
0.0

$$$$
>  <MUTATION_LABEL>
A12C U45A

>  <DISCRETE_LABEL>
1.0

$$$$
>  <MUTATION_LABEL>
A15C A33C G59C

>  <DISCRETE_LABEL>
0.0

$$$$
>  <MUTATION_LABEL>
G41C G51U A64C

>  <DISCRETE_LABEL>
0.0

$$$$
>  <MUTATION_LABEL>
A15U U45A

>  <DISCRETE_LABEL>
1.0

$$$$
>  <MUTATION_LABEL>
A15U C16G A33U U49C

>  <DISCRETE_LABEL>
0.0

$$$$
>  <MUTATION_LABEL>
A14G U46C U54A C71A

>  <DISCRETE_LABEL>
1.0

$$$$
>  <MUTATION_LABEL>
G29C G41U

>  <DISCRETE_LABEL>
0.0

$$$$
>  <MUTATION_LABEL>
G43C G51C G59U

>  <DISCRETE_LABEL>
0.0

$$$$
>  <MUTATION_LABEL>
A14C A48G C70U

>  <DISCRETE_LABEL>
0.0

$$$$
>  <MUTATION_LABEL>
G38C U57G G59A A64G

>  <DISCRETE_LABEL>
0.0

$$$$
>  <MUTATION_LABEL>
C16U C58U

>  <DISCRETE_LABEL>
0.0

$$$$
>  <MUTATION_LABEL>
C50G U55C

>  <DISCRETE_LABEL>
0.0

$$$$
>  <MUTATION_LABEL>
G29U G37C A42U

>  <DISCRETE_LABEL>
0.0

$$$$
>  <MUTATION_LABEL>
C16G G51U G60C

>  <DISCRETE_LABEL>
0.0

$$$$
